Value source: patent US20100087351A1

# experimentNotes: Odor detection threshold (ODT)
# cond: Table 15
# Description: Within these defined water-release groups, odorants are then further described based on their experimentally determined odor detection thresholds (ODT) to further characterize the odor impact or olfactive intensity of a citrus and other olfactive types within the herein-described released group of odorants. Upon their release in headspace, odorants are detected based on their odor detection threshold values. […]
Category key, based on recorded odt: bin 1 = under 10 ppb, bin 2 = from 10 ppb up to 100 ppb, bin 3 = 100 ppb and over

For orientation, consider the following solved cases.
molecule: CCC(CC)C(=O)N(C)c1cccc(C)c1 [PARADISAMIDE]
answerLabel: bin 1
--
molecule: CC1=CC(C)C(C=O)CC1 (stereo not shown)
answerLabel: bin 3

Exercise: State the band of CC/C=C\CCOC(=O)c1ccccc1O [CIS-3-HEXENYL SALICYLATE]
Solution: bin 1

Exercise: Returns: class label. Input: CC(C)=CCCC(C)C=O (stereo not shown)
Solution: bin 1
